Each recorded value in this set is attributed to patent US9204653B2.

In this section we review reported pest or weed control at 100 ppm values for a set of compounds.
system: Mycosphaerella graminicola; Anamorph: Septoria tritici; Bayer Code SEPTTR; experiment: Leaf blotch of wheat, foliar fungicide treatment, one day protectant (1DP) or three day curative (3DC); type: in vivo, Septoria tritici on wheat plants (variety Yuma); conditions: Zymoseptoria tritici, 24 h, one day protectant (1DP), 100 ppm, rating of percent disease control, read-out: SEPTTR 1DP 100 ppm

[Q] I am curious: what pest or weed control at 100 ppm value has been reported for COCCCOc1ncc(F)c(N)n1 ?
[A] 76 to 100%

[Q] I am curious: what pest or weed control at 100 ppm value has been reported for CO/N=C\Nc1nc(OCc2ccc(F)cc2)ncc1F ?
[A] 76 to 100%

====

test system: Mycosphaerella graminicola; Anamorph: Septoria tritici; Bayer Code SEPTTR; experiment: Leaf blotch of wheat, foliar fungicide treatment, one day protectant (1DP) or three day curative (3DC); type: in vivo, Septoria tritici on wheat plants (variety Yuma); settings: Zymoseptoria tritici, 72 h, three day curative, 25 ppm, rating of percent disease control, read-out: SEPTTR 3DC 25 ppm
property-label: pest or weed control at 25 ppm

// known answers, use as guide
{"compound": "Nc1nc(OCc2cc3cccnc3s2)ncc1F [Compound 578]", "pest or weed control at 25 ppm": "76 to 100%"}
{"compound": "COc1ccc(C(=O)Oc2ncc(F)c(/N=C/N(C)C)n2)cc1 [Compound 636]", "pest or weed control at 25 ppm": "76 to 100%"}
{"compound": "CC(=O)Nc1nc(OCCc2ccc(Cl)cc2)ncc1F [Compound 624]", "pest or weed control at 25 ppm": "51 to 75%"}
{"compound": "CC[Si](CC)(CC)Nc1nc(Oc2ccc(OC)cc2)ncc1F [Compound 605]", "pest or weed control at 25 ppm": "0 to 25%"}

[Q] I am curious: what pest or weed control at 25 ppm value has been reported for Nc1nc(OCc2ccc(I)cc2)ncc1F [Compound 725] ?
[A] 76 to 100%

[Q] I am curious: what pest or weed control at 25 ppm value has been reported for Cc1cc(C)cc(COc2ncc(F)c(N)n2)c1 [Compound 564] ?
[A] 26 to 50%

[Q] I am curious: what pest or weed control at 25 ppm value has been reported for Fc1ccc(COc2ncc(F)c(NCn3c(-c4cscn4)nc4ccccc43)n2)cc1 [Compound 694] ?
[A] 0 to 25%

[Q] I am curious: what pest or weed control at 25 ppm value has been reported for CC(C)(C)c1ccc(COc2ncc(F)c(N)n2)cc1 [Compound 696] ?
[A] 51 to 75%

[Q] I am curious: what pest or weed control at 25 ppm value has been reported for Cc1cc(C)cc(C(C)Oc2ncc(F)c(N)n2)c1 (stereo not shown) [Compound 592] ?
[A] 76 to 100%

[Q] I am curious: what pest or weed control at 25 ppm value has been reported for Nc1nc(OCc2ccc(OCc3ccc(F)cc3)cc2)ncc1F [Compound 648] ?
[A] 76 to 100%

====

In this section we review reported pest or weed control at 25 ppm values for a set of compounds.
test system: Mycosphaerella graminicola; Anamorph: Septoria tritici; Bayer Code SEPTTR; test: Leaf blotch of wheat, foliar fungicide treatment, one day protectant (1DP) or three day curative (3DC); format: in vivo, Septoria tritici on wheat plants (variety Yuma); conditions: Zymoseptoria tritici, 72 h, three day curative, 25 ppm, rating of percent disease control, read-out: SEPTTR 3DC 25 ppm

{"structure-notation": "CCCNC(=S)Nc1nc(OCc2cccc(C#N)c2)ncc1F", "reading": "0 to 25%"}
{"structure-notation": "Cc1cccc(COc2ncc(F)c(N)n2)c1C", "reading": "0 to 25%"}
{"structure-notation": "CC[Si](CC)(CC)Nc1nc(OCc2cccc(C#N)c2)ncc1F", "reading": "76 to 100%"}
{"structure-notation": "COc1ccc(COc2ncc(F)c(/N=C/N(C)C)n2)cc1", "reading": "76 to 100%"}

# evaluate next
[Q] I am curious: what pest or weed control at 25 ppm value has been reported for O=[N+]([O-])c1ccccc1SNc1nc(OCc2ccccc2)ncc1F ?
[A] 26 to 50%
